molecules and their reported AC50
- Test system: C. albicans CaCi-17 growth, Alamar Blue fluorescence, 48 h
- EXPERIMENT NOTES: fluconazole-resistant Candida albicans growth inhibitors – clinical isolate, Alamar Blue, dry powder, confirmation (AID 602189)
Results filed as inconclusive are left out.

• O=C(NNC(=S)Nc1ccc(Cl)c(Cl)c1)c1ccccn1 = 1.86 µM
• O=C(Nc1nnc(-c2ccc3c(c2)CCCC3)o1)c1ccc(Cl)cc1Cl = 17.3 µM
• O=C(Nc1nc(-c2ccccn2)cs1)c1ccc(Cl)s1 = 10.5 µM
• O=C(Nc1nnc(-c2ccc3c(c2)CCCC3)o1)c1ccccc1 = 25.9 µM

stdin: Kindly state the measured AC50 obtained for Oc1c(C(c2ccccc2Cl)N2CCCCC2)ccc2cccnc12 (stereo unspecified) with C. albicans CaCi-17 growth, Alamar Blue fluorescence, 48 h.
stdout: 11.7 µM

stdin: Can you look up AC50 on C. albicans CaCi-17 growth, Alamar Blue fluorescence, 48 h for O=C(Oc1c(Cl)cc(Cl)c2cccnc12)c1ccco1 ?
stdout: 1.5 µM

stdin: Param readout = AC50; param system = C. albicans CaCi-17 growth, Alamar Blue fluorescence, 48 h; param query = O=C(Nc1nc(-c2ccccn2)cs1)c1ccc(Br)s1 ; response: value
stdout: 4.94 µM
